Provide the recorded pIC50 for the entries that follow.
- TARGET SYSTEM: D(2) dopamine receptor (Rattus norvegicus, UniProt P61169)
- Sequence (P61169 whole entry): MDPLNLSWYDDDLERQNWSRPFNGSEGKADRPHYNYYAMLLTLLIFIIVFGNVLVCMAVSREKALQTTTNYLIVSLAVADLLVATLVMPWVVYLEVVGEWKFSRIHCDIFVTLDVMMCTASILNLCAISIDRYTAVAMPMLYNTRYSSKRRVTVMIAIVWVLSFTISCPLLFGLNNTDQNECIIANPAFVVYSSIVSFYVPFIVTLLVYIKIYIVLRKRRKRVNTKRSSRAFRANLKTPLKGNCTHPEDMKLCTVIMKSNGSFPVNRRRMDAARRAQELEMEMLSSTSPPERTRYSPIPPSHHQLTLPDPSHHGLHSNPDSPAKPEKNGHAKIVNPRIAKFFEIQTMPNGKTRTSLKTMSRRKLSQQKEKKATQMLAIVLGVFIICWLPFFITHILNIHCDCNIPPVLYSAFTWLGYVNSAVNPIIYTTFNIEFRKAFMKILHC
- METHOD: Displacement of [3H]raclopride from rat dopamine D2 receptor
Answers are plain numbers, as −log10 of the molar value.

Below are worked cases with known answers.
>>> val("c1ccc2c(c1)C[C@H]1NCCc3cc4c(c-2c31)OCO4")
4.72
>>> val("O=C1c2ccccc2-c2c3c(cc4ccnc1c24)OCO3")
4.23
>>> val("COc1c(O)c2c3c(c1OC)CCN(C)C3Cc1ccccc1-2 (configuration not stated)")
5.55

For each listed entry, give its pIC50.
1. CCCN1CCc2cc(O)cc3c2[C@H]1Cc1ccc(O)c(O)c1-3
2. COc1cc2c(cc1OC)Oc1c(O)ccc3c1[C@H](C2)N(C)CC3
3. COc1c(O)c2c3c(nccc3c1OC)C(C)(C)c1cc(O)ccc1-2

[10.15, 6.52, 4.10]
